Biological target: cloned human m2 muscarinic receptor (Homo sapiens)
Sequence (P08172 whole entry): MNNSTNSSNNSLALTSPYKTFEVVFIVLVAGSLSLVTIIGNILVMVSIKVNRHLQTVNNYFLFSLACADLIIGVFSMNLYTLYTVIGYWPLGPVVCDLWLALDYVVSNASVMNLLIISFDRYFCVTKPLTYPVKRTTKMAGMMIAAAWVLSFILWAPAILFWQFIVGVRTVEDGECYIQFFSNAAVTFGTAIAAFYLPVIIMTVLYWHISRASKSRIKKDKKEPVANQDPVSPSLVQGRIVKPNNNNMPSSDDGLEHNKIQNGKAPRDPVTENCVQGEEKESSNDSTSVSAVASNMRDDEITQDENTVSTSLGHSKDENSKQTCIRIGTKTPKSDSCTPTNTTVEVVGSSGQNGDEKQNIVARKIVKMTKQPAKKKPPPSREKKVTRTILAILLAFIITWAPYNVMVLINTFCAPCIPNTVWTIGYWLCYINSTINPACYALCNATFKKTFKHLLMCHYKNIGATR
Assay: Muscarinic binding activity (3H-QNB displacement), m2
Conditions: membranes of transfected CHO cells, read-out: Ki m2
measurementLabel: Ki (nM)
Answers are plain numbers, in nM.

Solved entries (count: 3):
# compound, targetOfAssay, observedValue
data = [
    ("c1cnc(Oc2ccc3c(c2)CCC3N2CCN(C3CCCCC3)CC2)nc1 (stereo not shown) [Compound 9]", "cloned human m2 muscarinic receptor (Homo sapiens)", 35),
    ("CC(=O)Nc1ccc(Oc2ccc3c(c2)OCCC3N2CCN(C3CCCCC3)CC2)cc1 (stereo not shown)", "cloned human m2 muscarinic receptor (Homo sapiens)", 224),
    ("Nc1ccc(Oc2ccc3c(c2)OCCC3N2CCN(C3CCCCC3)CC2)cc1 (stereo not shown)", "cloned human m2 muscarinic receptor (Homo sapiens)", 130),
]

Turning to the following compound.
Recorded result, COc1ccc(S(=O)(=O)c2ccc3c(c2)CCC3N2CCC(N3CCCCC3)CC2)cc1 (stereo not shown) , Ki: 17

----------
Molecular target: cloned human m4 muscarinic receptor (Homo sapiens, UniProt P08173)
Sequence (P08173 1-479): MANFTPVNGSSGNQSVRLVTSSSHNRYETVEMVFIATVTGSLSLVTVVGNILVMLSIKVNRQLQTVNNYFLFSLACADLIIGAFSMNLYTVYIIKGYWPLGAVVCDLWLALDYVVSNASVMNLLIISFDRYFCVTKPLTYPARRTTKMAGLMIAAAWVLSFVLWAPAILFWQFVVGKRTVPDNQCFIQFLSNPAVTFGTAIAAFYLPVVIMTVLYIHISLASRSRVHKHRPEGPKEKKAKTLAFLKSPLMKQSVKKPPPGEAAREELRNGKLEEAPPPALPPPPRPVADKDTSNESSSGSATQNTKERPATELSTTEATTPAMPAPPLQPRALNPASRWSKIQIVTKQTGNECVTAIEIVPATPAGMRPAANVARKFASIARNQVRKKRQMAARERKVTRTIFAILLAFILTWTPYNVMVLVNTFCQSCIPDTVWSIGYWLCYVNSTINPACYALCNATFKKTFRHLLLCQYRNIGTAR
Test: Muscarinic binding activity (3H-QNB displacement), m4
Settings: membranes of transfected CHO cells, read-out: Ki m4
measurementLabel: Ki (nM)
One number for each entry, in nM.

Take a look at these entries with their results.
# compound, targetOfAssay, unitTag, Ki
data = [
    ("COc1ccc(S(=O)(=O)c2ccc3c(c2)CCC3N2CCC(N3CCCCC3)CC2)cc1 (stereo not shown)", "cloned human m4 muscarinic receptor (Homo sapiens, UniProt P08173)", "nM", 33),
    ("O=[N+]([O-])c1ccc(Oc2ccc3c(c2)CCCC3N2CCN(C3CCCCC3)CC2)cc1 (stereo not shown)", "cloned human m4 muscarinic receptor (Homo sapiens, UniProt P08173)", "nM", 77),
]

Ki in this record for Nc1ccc(Oc2ccc3c(c2)OCCC3N2CCN(C3CCCCC3)CC2)cc1 (stereo not shown) : 37

----------
Biological target: cloned human m1 muscarinic receptor (Homo sapiens)
Sequence (P11229 1-460): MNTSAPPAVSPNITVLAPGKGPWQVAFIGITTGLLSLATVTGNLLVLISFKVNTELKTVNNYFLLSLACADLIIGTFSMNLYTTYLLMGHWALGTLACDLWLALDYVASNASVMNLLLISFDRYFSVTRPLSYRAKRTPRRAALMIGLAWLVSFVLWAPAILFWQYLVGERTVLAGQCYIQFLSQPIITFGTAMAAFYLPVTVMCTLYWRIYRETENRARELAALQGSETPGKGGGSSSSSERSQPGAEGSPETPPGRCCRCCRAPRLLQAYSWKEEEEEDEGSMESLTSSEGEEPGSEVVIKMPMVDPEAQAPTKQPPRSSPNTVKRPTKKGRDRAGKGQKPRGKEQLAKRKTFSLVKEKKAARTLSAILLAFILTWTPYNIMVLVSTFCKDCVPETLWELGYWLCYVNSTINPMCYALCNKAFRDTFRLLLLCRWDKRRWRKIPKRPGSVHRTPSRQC
Test: Muscarinic binding activity (3H-QNB displacement), m1
Conditions: Ki m1, membranes of transfected CHO cells
I'd appreciate it if you could supply Ki values for the items below.
Give bare numbers, in nM.

Please report Ki for every entry that follows.
1. COc1ccc(S(=O)(=O)c2ccc3c(c2)CCC3N2CCN(C3CCCCC3)C[C@H]2C)cc1 (single isomer, unassigned) [Compound 15]
2. COc1ccc(S(=O)(=O)c2ccc3c(c2)CCC3N2CCN(C3CCCCC3)C[C@H]2C)cc1 (single isomer, unassigned) [Compound 14]

*A*
1. 1.23
2. 112
